Assay: Pharmacokinetic study iv/po
Format: in vivo
Details: plasma; dose iv/po 5/10 mg/kg; read-out: F % (bioavailability)

Molecule	bioavailability
CN(c1ccccc1)c1ccc2c(c1)CCC[C@H]2CNc1cnccc1C(=O)O [Compound I]	30.4%
